TESTED TARGET: T1, mouse Claudin-6 (CLDN6) (mouse, UniProt Q9Z262 1-219)
T1 construct: whole, on cells; GFP fusion on engineered HEK293T cells; also called Mouse CLDN6; murine CLDN6
T1 sequence (looked up): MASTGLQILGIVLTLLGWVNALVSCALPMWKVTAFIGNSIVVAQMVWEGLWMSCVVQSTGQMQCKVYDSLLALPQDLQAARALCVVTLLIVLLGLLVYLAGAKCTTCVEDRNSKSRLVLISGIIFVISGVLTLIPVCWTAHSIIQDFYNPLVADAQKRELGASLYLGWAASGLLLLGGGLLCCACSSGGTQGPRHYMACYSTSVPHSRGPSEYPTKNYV
PROTOCOL TEXT: FACS, 293T clone expressing mouse CLDN6, dose not stated (2nd Ab only 1061.72)
Note to self: values exactly at 10000 are Fulfilled. So FACS fluorescence at or above 10000 is Fulfilled, below is Not fulfilled.

Field: example entries. Status: answers known.
>>> class("AB1-11 (antibody, V domains shown, humanized; also called humanized AB1-11; HU-11) VH: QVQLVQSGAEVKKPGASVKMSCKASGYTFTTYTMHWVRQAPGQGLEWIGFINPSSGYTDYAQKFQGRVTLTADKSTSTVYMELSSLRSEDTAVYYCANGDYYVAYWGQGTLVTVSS VL: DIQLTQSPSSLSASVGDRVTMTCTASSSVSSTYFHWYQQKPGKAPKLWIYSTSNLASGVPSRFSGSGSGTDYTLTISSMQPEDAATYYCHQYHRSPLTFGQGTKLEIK")
"Fulfilled"
>>> class("AB4-6 (antibody, V domains shown, humanized) VH: QVQLVQSGAEVKKPGASVKMSCKASGYTFTSYTMHWIRQAPGQGLEWIGYINPSSTYTHYAQKFQGRATLTADKSTSTAYMELSSLRSEDTAVYYCSRGELGGFAYWGQGTLVTVSS VL: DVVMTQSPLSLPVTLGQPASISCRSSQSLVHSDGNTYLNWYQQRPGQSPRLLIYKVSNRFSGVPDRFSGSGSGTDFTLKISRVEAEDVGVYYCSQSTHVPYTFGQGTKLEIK")
"Fulfilled"
>>> class("AB11-2 (antibody, V domains shown, humanized) VH: EVQLVESGGGLVQPGGSLRLSCAASGFTFSSFGMHWVRQAPGKGLEWVAYISSDSRTIYYADSVKGRFTISRDNAKNSLYLQMNSLRAEDTAVYYCARDYGRTYEAYWGQGTLVTVSS VL: DIVMTQSPDSLAVSLGERATINCRASKSVSTSGYSYIHWYQQKPGQPPKLLIYLASNLESGVPDRFSGSGSGTDFTLTISSLQAEDVAVYYCQHSRELPLTFGQGTKLEIK")
"Not fulfilled"
>>> class("AB1-6 (antibody, V domains shown, humanized) VH: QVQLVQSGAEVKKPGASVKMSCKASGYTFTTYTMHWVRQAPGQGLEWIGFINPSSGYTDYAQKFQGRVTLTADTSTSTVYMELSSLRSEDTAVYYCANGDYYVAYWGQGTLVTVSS VL: DIQMTQSPSSLSASVGDRVTITCTASSSVSSTYFHWYQQKPGKAPKLLIYSTSNLASGVPSRFSGSGSGTDYTLTISSLQPEDFATYYCHQYHRSPLTFGQGTKLEIK")
"Fulfilled"

# next binder below
Evaluate AB4-11 (antibody, V domains shown, humanized) VH: QVQLVQSGAEVKKPGASVKMSCKASGYTFTSYTMHWIRQAPGQGLEWIGYINPSSTYTHYIKKFKDRATLTADKSTSTAYMELSSLRSEDTAVYYCSRGELGGFAYWGQGTLVTVSS VL: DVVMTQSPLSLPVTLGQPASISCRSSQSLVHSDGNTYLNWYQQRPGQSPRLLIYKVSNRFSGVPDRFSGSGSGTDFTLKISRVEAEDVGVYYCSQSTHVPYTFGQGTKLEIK : FACS fluorescence at minimum 10000? Not fulfilled
